assayed_system: RecQ-like DNA helicase BLM (Homo sapiens)
procedure_text: qHTS Assay for Inhibitors of Bloom's syndrome helicase (BLM); further: nearly all actives have a fitted effect of over 35% in size
setup_conditions: recombinant BLM DNA unwinding, fluorescence dequenching; series mostly up to 56.1 µM
Hit rate of the full screen: of about 350,000 compounds, about 700 (0.2%) were called active. The call rests on the fitted dose curve; in most records, active means well fitted inhibition curve with a large enough effect; inconclusive means small, poorly fitted or top-dose-only effect; inactive means flat fitted curve, though single readings scatter. Shown is part of a subset that was picked to be rich in actives.
Your answer must be one of the following: 1 (active), -1 (inactive)

compound: C=C1O[C@@](CO)(n2cnc3c(N)ncnc32)[C@H](O)[C@@H]1O
discrete_label: -1
--
compound: COC(=O)c1ccc2c(c1)N(CC(=O)Nc1ccc(C)c(C)c1)C(=O)c1ccccc1S2
discrete_label: -1
--
compound: O=C1CN(Cc2ccccc2)S(=O)(=O)c2ccccc21
discrete_label: -1
--
compound: COc1ccc2c3c1OC1CC(O)C=C[C@@]31CCN(C)C2 (stereo partly specified)
discrete_label: -1
--
compound: Cn1c(N)c(C(=O)COC(=O)c2cc(C(F)(F)F)nc3c(C(F)(F)F)cccc23)c(=O)n(C)c1=O
discrete_label: -1
--
compound: COc1ccc(S(=O)(=O)NCC(c2ccc(N(C)C)cc2)N2CCc3ccccc32)cc1OC (stereo unspecified)
discrete_label: -1

Ask | Per the records of this test, what outcome belongs to Cc1nc([N+](=O)[O-])cn1CC(=O)Nc1ccc2c(c1)OCO2 ?
Reply | -1

Ask | Per the records of this test, what outcome belongs to O=C(O)C(c1ccccc1)N1C(=O)/C(=C\c2ccc(-c3cccc(Cl)c3)o2)SC1=S (stereo unspecified) ?
Reply | 1

Ask | Per the records of this test, what outcome belongs to N#Cc1c(C(F)(F)F)cc(-c2cccs2)nc1N1CCCCC1 ?
Reply | -1

Ask | Per the records of this test, what outcome belongs to CN=C1S/C(=C\c2ccc(Sc3ccc(Cl)cc3)o2)C(=O)N1C ?
Reply | -1

---

assayed_system: RecQ-like DNA helicase BLM (Homo sapiens) (UniProt P54132)
Sequence (P54132 whole entry, looked up): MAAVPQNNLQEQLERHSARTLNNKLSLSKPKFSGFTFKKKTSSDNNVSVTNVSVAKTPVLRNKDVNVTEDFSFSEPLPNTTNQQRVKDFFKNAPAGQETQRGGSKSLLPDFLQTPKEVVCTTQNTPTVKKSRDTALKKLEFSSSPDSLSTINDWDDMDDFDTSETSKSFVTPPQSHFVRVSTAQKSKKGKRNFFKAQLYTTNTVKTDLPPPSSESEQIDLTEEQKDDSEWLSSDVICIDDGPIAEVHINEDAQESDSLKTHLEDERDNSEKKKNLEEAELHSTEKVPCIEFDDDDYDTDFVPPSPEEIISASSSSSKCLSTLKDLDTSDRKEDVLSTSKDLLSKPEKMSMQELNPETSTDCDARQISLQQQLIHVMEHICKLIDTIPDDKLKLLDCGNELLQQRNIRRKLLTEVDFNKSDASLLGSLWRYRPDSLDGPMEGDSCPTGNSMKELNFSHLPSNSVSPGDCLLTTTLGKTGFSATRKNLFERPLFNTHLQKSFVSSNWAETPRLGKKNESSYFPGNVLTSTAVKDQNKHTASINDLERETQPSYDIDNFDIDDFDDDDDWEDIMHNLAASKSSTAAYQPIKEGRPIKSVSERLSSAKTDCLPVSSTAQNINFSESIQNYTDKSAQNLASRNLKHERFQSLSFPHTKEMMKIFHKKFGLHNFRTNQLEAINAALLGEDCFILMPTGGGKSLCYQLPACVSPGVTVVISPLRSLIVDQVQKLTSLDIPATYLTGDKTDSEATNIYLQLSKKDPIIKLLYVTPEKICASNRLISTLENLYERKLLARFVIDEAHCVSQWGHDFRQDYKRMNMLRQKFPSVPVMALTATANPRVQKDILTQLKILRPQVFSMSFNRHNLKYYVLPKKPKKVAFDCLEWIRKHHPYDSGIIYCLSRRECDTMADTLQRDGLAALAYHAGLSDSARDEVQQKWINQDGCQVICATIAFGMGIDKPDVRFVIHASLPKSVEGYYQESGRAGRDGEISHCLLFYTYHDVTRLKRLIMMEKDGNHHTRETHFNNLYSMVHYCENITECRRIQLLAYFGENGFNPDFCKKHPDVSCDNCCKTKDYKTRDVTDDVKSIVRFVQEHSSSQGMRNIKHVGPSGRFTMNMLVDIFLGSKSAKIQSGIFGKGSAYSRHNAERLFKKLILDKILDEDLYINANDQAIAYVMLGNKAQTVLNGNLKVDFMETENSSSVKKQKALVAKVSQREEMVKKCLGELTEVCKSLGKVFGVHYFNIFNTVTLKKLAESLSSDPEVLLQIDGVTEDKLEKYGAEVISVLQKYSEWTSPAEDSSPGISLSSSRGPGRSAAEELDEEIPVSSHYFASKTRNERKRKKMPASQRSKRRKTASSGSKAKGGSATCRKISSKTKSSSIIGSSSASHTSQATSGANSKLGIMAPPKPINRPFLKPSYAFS
procedure_text: qHTS Assay for Inhibitors of Bloom's syndrome helicase (BLM); further: nearly all actives have a fitted effect of over 35% in size
setup_conditions: recombinant BLM DNA unwinding, fluorescence dequenching; series mostly up to 56.1 µM
The campaign covered roughly 350,000 compounds. About 700 (0.2%) were called active. Calls follow the shape of the dose curve; as a rule, active = well fitted inhibition curve with a large enough effect; inconclusive = small, poorly fitted or top-dose-only effect; inactive = flat fitted curve, though single readings scatter. Only a selection was taken, and actives are over-represented in it overall.
Your answer must be one of the following: yes (active), no (inactive)

These solved cases illustrate the format of a correct answer.
compound: N#Cc1ccccc1-c1ccc2ncnc(NCc3cccnc3)c2c1
discrete_label: no
--
compound: N[C@@H](C(=O)O)c1ccc(P(=O)(O)O)cc1
discrete_label: no
--
compound: CCc1nn(CC(=O)NCC(C)c2ccccc2)c(=O)c2cc3occc3n12 (stereo unspecified)
discrete_label: no
--
compound: O=C(NCc1ccccc1)c1cc(-c2cccc(Cl)c2)on1
discrete_label: no
--
compound: CC/C=C\C/C=C\C/C=C\C/C=C\C/C=C\C/C=C\CCC(=O)NC(C)C(=O)O (stereo unspecified)
discrete_label: no

We next turn to a different compound, shown below.
Ask | Per the records of this test, what outcome belongs to N#Cc1c(N2CCCCC2)nc(N)c2c(N)nc(SCC(=O)O)cc12 ?
Reply | yes
